Quick list: CC50 at 48 h per entry.
# Assay explanation: Cytotoxicity against mouse NCTC clone 929 cells assessed as reduction in cell viability after 48 hrs by MTT assay
# Type: cell-based

>  <Molecule>
O=C(Cn1ccnc1[N+](=O)[O-])NCc1ccccc1

>  <CC50 at 48 h>
> 200 µM

$$$$
>  <Molecule>
C=CCCCCCCCCCCCCC/C=C1/C[C@H](CO)OC1=O

>  <CC50 at 48 h>
> 200 µM

$$$$
>  <Molecule>
CCCCCCCCCCCCCCCCCCCCC/C=C1/C[C@H](CO)OC1=O

>  <CC50 at 48 h>
> 200 µM

$$$$

Now examine the next entry.
Summary for this molecule, `CCCCCCCCCCCCCCC/C=C1/C[C@H](CO)OC1=O` : CC50 at 48 h is 71.2 µM

---

# Assay explanation: Selectivity index, ratio of CC50 for cytotoxicity against mouse NCTC clone 929 cells to IC50 for trypomastigote forms of Trypanosoma cruzi Y infected in LLC-MK2 cells
# Format: toxicity, cell-based
# Test conditions: read-out: Ratio CC50/IC50
Assay endpoint: selectivity ratio

Here's what some known entries look like.
>  <Molecule>
CCCCCCCCCCCCCCCCCCCCC/C=C1/C[C@H](CO)OC1=O

>  <selectivity ratio>
> 95.2

$$$$
>  <Molecule>
C=CCCCCCCCCCCCCC/C=C1/C[C@H](CO)OC1=O

>  <selectivity ratio>
> 15.3

$$$$
>  <Molecule>
O=C(Cn1ccnc1[N+](=O)[O-])NCc1ccccc1

>  <selectivity ratio>
> 12.2

$$$$

Now examine the next entry.
Summary for this compound, `CCCCCCCCCCCCCCC/C=C1/C[C@H](CO)OC1=O` : selectivity ratio is 17.8
